# Test system: HL-1
# Test details: relative cell viability (CellTiter-Glo) vs DMSO control (% of DMSO control); higher = more viable cells
# Conditions used: oxygen condition: normoxia 72 h; 200 nM
Structures can show the parent of a compound that is named as a salt.
Readout type: relative cell viability
One number for each entry.

Please review the entries below; each comes with its answer.
{"columns": ["Compound", "relative cell viability"],
 "data": [
  ["Cc1c(OCC(F)(F)F)ccnc1C[S@@+]([O-])c1nc2ccccc2[nH]1", 97.7],
  ["O=C1[C@H](CC[C@H](O)c2ccc(F)cc2)[C@@H](c2ccc(O)cc2)N1c1ccc(F)cc1", 112]
]}

Go through the items and report each one's relative cell viability.
1. COc1cc2nc(N3CCN(C(=O)c4ccco4)CC3)nc(N)c2cc1OC [Prazosin HCl]
2. Nc1ncn([C@@H]2O[C@H](CO)[C@@H](O)[C@H]2O)c(=O)n1
3. C=CC[N+]1([C@H]2C[C@H]3[C@@H]4CC[C@H]5C[C@H](O)[C@@H](N6CCOCC6)C[C@]5(C)[C@H]4CC[C@]3(C)[C@H]2OC(C)=O)CCCC1 [Rocuronium bromide]

Output:
[100, 103, 104]

---

# System: HL-1
# Test details: relative cell viability (CellTiter-Glo) vs DMSO control (% of DMSO control); higher = more viable cells
# Conditions used: oxygen condition: normoxia 72 h; 40 nM
Where a name gives a salt, the structure may show the parent alone.
Readout type: relative cell viability

Please review the entries below; each comes with its answer.
{"columns": ["Compound", "relative cell viability"],
 "data": [
  ["C=C1CC[C@H](O)C/C1=C/C=C1\\CCC[C@]2(C)[C@@H]([C@H](C)/C=C/[C@H](C)C(C)C)CC[C@@H]12 [Vitamin D2]", 107],
  ["CC(=O)OCC(=O)[C@H]1CC[C@H]2[C@@H]3CCC4=CC(=O)CC[C@]4(C)[C@H]3CC[C@]12C [Deoxycorticosterone acetate]", 95.4],
  ["C=C1c2cccc(O)c2C(=O)C2=C(O)[C@]3(O)C(=O)C(C(N)=O)=C(O)[C@@H](N(C)C)[C@@H]3[C@@H](O)[C@H]12 [Methacycline hydrochloride]", 102],
  ["CCC(=O)O[C@]1(C(=O)CCl)[C@@H](C)C[C@H]2[C@@H]3CCC4=CC(=O)C=C[C@]4(C)[C@@]3(F)[C@@H](O)C[C@@]21C [Clobetasol propionate]", 92.3]
]}

Go through the items and report each one's relative cell viability.
1. Cc1cc(C)nc(NS(=O)(=O)c2ccc(N)cc2)n1
2. COc1cc(C(C)=O)ccc1OCCCN1CCC(c2noc3cc(F)ccc23)CC1
3. C=CC[C@@H]1/C=C(\C)C[C@H](C)C[C@H](OC)[C@H]2O[C@@](O)(C(=O)C(=O)N3CCCC[C@H]3C(=O)O[C@H](/C(C)=C/[C@@H]3CC[C@@H](O)[C@H](OC)C3)[C@H](C)[C@@H](O)CC1=O)[C@H](C)C[C@@H]2OC
4. Cc1ccc(C(=O)C(C)CN2CCCCC2)cc1 (stereo not given) [Tolperisone HCl]
5. CC12CC3CC(C)(C1)CC(N)(C3)C2 [Memantine HCl]
6. CN(C)CCN(Cc1cccs1)c1ccccn1 [Methapyrilene HCl]
7. CC(C)OC(=O)C(C)(C)Oc1ccc(C(=O)c2ccc(Cl)cc2)cc1 [Fenofibrate]

Output:
1: 94.6; 2: 99.6; 3: 109; 4: 107; 5: 94.5; 6: 109; 7: 103

---

# System: HL-1
# Test details: relative cell viability (CellTiter-Glo) vs DMSO control (% of DMSO control); higher = more viable cells
# Conditions used: oxygen condition: normoxia 72 h; 200 nM
Structures can show the parent of a compound that is named as a salt.
Give relative cell viability for every item shown.
Give bare numbers.

{"columns": ["Compound", "Readout type", "Endpoint result"],
 "data": [
  ["O=C(NC[C@H]1CN(c2ccc(N3CCOCC3=O)cc2)C(=O)O1)c1ccc(Cl)s1 [Rivaroxaban]", "relative cell viability", 90.8],
  ["CC1=C(/C=C/C(C)=C/C=C/C(C)=C/C(=O)O)C(C)(C)CCC1 [Tretinoin]", "relative cell viability", 106],
  ["CNCC[C@H](Oc1cccc2ccccc12)c1cccs1 [Duloxetine HCl]", "relative cell viability", 94.3],
  ["CC(C)NCC(O)COc1cccc2ccccc12 (stereo not drawn) [Propranolol HCl]", "relative cell viability", 100]
]}

Go through the items and report each one's relative cell viability.
1. COc1cccc2c1C(=O)c1c(O)c3c(c(O)c1C2=O)C[C@@](O)(C(=O)CO)C[C@@H]3O[C@H]1C[C@H](N)[C@H](O)[C@H](C)O1 [Doxorubicin]
2. CNC(=C[N+](=O)[O-])NCCSCc1csc(CN(C)C)n1 [Nizatidine]
3. O=C1CCc2cc(OCCCCc3nnnn3C3CCCCC3)ccc2N1 [Cilostazol]
4. CN1CCC(=C2c3ccccc3C=Cc3ccccc32)CC1 [Cyproheptadine HCl]
5. NC(=O)N1c2ccccc2C=Cc2ccccc21 [Carbamazepine]
6. CCCCOc1ccc(OCCCN2CCOCC2)cc1 [Pramoxine HCl]
7. NC(=O)c1cccnc1 [Nicotinamide]

Output:
[55.4, 104, 108, 98.1, 103, 107, 103]

Go through the items and report each one's relative cell viability.
1. COC(=O)C1=C(C)NC(C)=C(C(=O)OC2CCCN(Cc3ccccc3)C2)C1c1cccc([N+](=O)[O-])c1 (stereo not drawn) [Benidipine hydrochloride]
2. CN1CCN2c3ccccc3Cc3ccccc3C2C1 (stereo not drawn) [Mianserin hydrochloride]
3. CC1=C(CC(=O)O)c2cc(F)ccc2/C1=C\c1ccc([S+](C)[O-])cc1 (stereo not drawn) [Sulindac]
4. CC(=O)OCC(=O)[C@@]1(O)CC[C@H]2[C@@H]3CCC4=CC(=O)CC[C@]4(C)[C@H]3C(=O)C[C@@]21C [Cortisone acetate]
5. CCOC(=O)C1=C(C)NC(C)=C(C(=O)OCC)C1c1ccccc1/C=C/C(=O)OC(C)(C)C [Lacidipine]
6. CCOC(=O)C1=C[C@@H](OC(CC)CC)[C@H](NC(C)=O)[C@@H](N)C1 [Oseltamivir phosphate]

Output:
1: 109; 2: 92.5; 3: 101; 4: 94.2; 5: 104; 6: 101

Go through the items and report each one's relative cell viability.
1. NC(CO)C(=O)NNCc1ccc(O)c(O)c1O (stereo not drawn) [Benserazide]
2. CCCC(CCC)C(=O)O[C@H]1C[C@H]2CC[C@@H](C1)[N+]2(C)C [Anisotropine Methylbromide]
3. Cc1cc(N)c2ccccc2[n+]1CCCCCCCCCC[n+]1c(C)cc(N)c2ccccc21 [Dequalinium chloride]
4. Nc1nc(N)nc(-c2cc(Cl)ccc2Cl)n1 [Irsogladine]

Output:
1. 104
2. 93.7
3. 107
4. 104

Go through the items and report each one's relative cell viability.
1. Oc1ccc(OCc2ccccc2)cc1 [Monobenzone]
2. COc1ccc([C@H]2CNC(=O)C2)cc1OC1CCCC1 [S-(+)-Rolipram]
3. CCCOc1ccc(C(=O)OCCN(CC)CC)cc1N [Proparacaine HCl]
4. CC1=NN(c2ccc(C)c(C)c2)C(=O)/C1=N\Nc1cccc(-c2cccc(C(=O)O)c2)c1O [Eltrombopag]
5. C=C[C@H]1CN2CC[C@H]1C[C@H]2[C@H](O)c1ccnc2ccc(OC)cc12 [Quinine hydrochloride dihydrate]
6. COc1ccc2cccc(CCNC(C)=O)c2c1 [Agomelatine]
7. CCCCOc1cc(C(=O)NCCN(CC)CC)c2ccccc2n1 [Dibucaine HCL]

Output:
1. 104
2. 101
3. 92.4
4. 112
5. 101
6. 90.4
7. 110

Go through the items and report each one's relative cell viability.
1. CC[C@H]1OC(=O)[C@H](C)[C@@H](O[C@H]2C[C@@](C)(OC)[C@@H](O)[C@H](C)O2)[C@H](C)[C@@H](O[C@@H]2O[C@H](C)C[C@H](N(C)C)[C@H]2O)[C@](C)(O)C[C@@H](C)CN(C)[C@H](C)[C@@H](O)[C@]1(C)O [Azithromycin]
2. COc1ccc(CC2c3cc(OC)c(OC)cc3CC[N+]2(C)CCC(=O)OCCCCCOC(=O)CC[N+]2(C)CCc3cc(OC)c(OC)cc3C2Cc2ccc(OC)c(OC)c2)cc1OC (stereo not drawn) [Atracurium besylate]
3. OCCOCCN1CCN(C2=Nc3ccccc3Sc3ccccc32)CC1 [Quetiapine fumarate]
4. O=C(c1ccc(OCCN2CCCCC2)cc1)c1c(-c2ccc(O)cc2)sc2cc(O)ccc12 [Evista]
5. COc1ccc(CNc2nc(N3CCC[C@H]3CO)ncc2C(=O)NCc2ncccn2)cc1Cl [Avanafil]

Output:
1. 96.2
2. 93.3
3. 106
4. 107
5. 102

---

# System: HL-1
# Test details: relative cell viability (CellTiter-Glo) vs DMSO control (% of DMSO control); higher = more viable cells
# Conditions used: oxygen condition: hypoxia 48 h (1% O2) + reoxygenation 24 h; 40 nM
Structures can show the parent of a compound that is named as a salt.
Give relative cell viability for every item shown.
Answers are plain numbers.

Please review the entries below; each comes with its answer.
{"columns": ["Compound", "Assay target", "relative cell viability"],
 "data": [
  ["CN(C)/N=N/c1[nH]cnc1C(N)=O", "HL-1", 97.5],
  ["CC/C(=C(\\c1ccccc1)c1ccc(OCCN(C)C)cc1)c1ccccc1 [Tamoxifen Citrate]", "HL-1", 103],
  ["CCOC(=O)[C@H](CCc1ccccc1)N[C@H]1CCCN2CCC[C@@H](C(=O)O)N2C1=O [Cilazapril monohydrate]", "HL-1", 97.6]
]}

Go through the items and report each one's relative cell viability.
1. Nc1nc(F)nc2c1ncn2[C@@H]1O[C@H](CO)[C@@H](O)[C@@H]1O
2. CC(=O)OCC(=O)[C@@]12OC(C)(C)O[C@@H]1C[C@H]1[C@@H]3C[C@H](F)C4=CC(=O)C=C[C@]4(C)[C@@]3(F)[C@@H](O)C[C@@]12C [Fluocinonide]

Output:
1. 104
2. 93.4

Go through the items and report each one's relative cell viability.
1. CC(C)[C@H](N)C(=O)OCC(CO)OCn1cnc2c(=O)nc(N)[nH]c21 (some centres not stated) [valganciclovir hydrochloride]
2. Cc1ccc(NC(=O)c2ccc(CN3CCN(C)CC3)cc2)cc1Nc1nccc(-c2cccnc2)n1

Output:
107
101
